setup conditions: in isobutanol, 294.3 K
quantity name: solubility (mole fraction)
Numbers only.

Input: State the recorded solubility (mole fraction) for this entry: CC(=O)Oc1ccccc1C(=O)O
Output: 0.0247

====

setup conditions: in isobutyl acetate, 307.15 K
quantity name: solubility (mole fraction)

Input: Reported solubility (mole fraction), molecule CC(=O)Oc1ccccc1C(=O)O : ____
Output: 0.0306

====

setup conditions: in isobutanol, 322.96 K
quantity name: solubility (mole fraction)
One number for each entry.

Input: I would be grateful if you could share the reported solubility (mole fraction) for CC(=O)Oc1ccccc1C(=O)O .
Output: 0.0875

====

setup conditions: in 2-butanone, 325.2 K
quantity name: solubility (mole fraction)
Give bare numbers.

Input: Please give the measured solubility (mole fraction) for this molecule: O=C(O)c1ccccc1
Output: 0.311

====

setup conditions: in isopropyl acetate, 318.25 K
quantity name: solubility (mole fraction)
Give bare numbers.

Input: Tell me the measured solubility (mole fraction) of O=C(O)c1ccccc1 , please.
Output: 0.232

====

setup conditions: in ethyl acetate, 303.76 K
quantity name: solubility (mole fraction)
One number for each entry.

Input: Can you share its solubility (mole fraction)? I mean this compound: O=C(O)c1ccccc1
Output: 0.186

====

setup conditions: in n-butanol, 314.64 K
quantity name: solubility (mole fraction)
Give bare numbers.

Input: Recorded solubility (mole fraction) for CC(=O)Oc1ccccc1C(=O)O , please?
Output: 0.0752

====

setup conditions: in methanol, 312.56 K
quantity name: solubility (mole fraction)
One number for each entry.

Input: Query (compound): O=C(O)c1ccccc1 ; field requested: solubility (mole fraction)
Output: 0.204

====

setup conditions: in n-butanol, 292.35 K
quantity name: solubility (mole fraction)
Give bare numbers.

Input: What measured solubility (mole fraction) goes with CC(=O)Oc1ccccc1C(=O)O ?
Output: 0.0291

====

setup conditions: in isopropyl acetate, 288.69 K
quantity name: solubility (mole fraction)
One number for each entry.

Input: Which value of solubility (mole fraction) has been reported for O=C(O)c1ccccc1 in the records?
Output: 0.118

====

setup conditions: in isopropyl acetate, 308.33 K
quantity name: solubility (mole fraction)
Answers are plain numbers.

Input: Would you mind telling me what solubility (mole fraction) value was observed for O=C(O)c1ccccc1 ?
Output: 0.188

====

setup conditions: in n-butanol, 301.56 K
quantity name: solubility (mole fraction)
Answers are plain numbers.

Input: // returns reported solubility (mole fraction) for input O=C(O)c1ccccc1
Output: 0.194

====

setup conditions: in ethyl acetate, 321.37 K
quantity name: solubility (mole fraction)
Numbers only.

Input: Requested field: solubility (mole fraction). Item: CC(=O)Oc1ccccc1C(=O)O
Output: 0.0676

====

setup conditions: in isopropyl acetate, 276.27 K
quantity name: solubility (mole fraction)
Answers are plain numbers.

Input: Name the recorded solubility (mole fraction) for O=C(O)c1ccccc1 .
Output: 0.0855

====

setup conditions: in isobutanol, 289.27 K
quantity name: solubility (mole fraction)

Input: # get_value(readout='solubility (mole fraction)', item= CC(=O)Oc1ccccc1C(=O)O )
Output: 0.0194

====

setup conditions: in isopropyl acetate, 298.34 K
quantity name: solubility (mole fraction)

Input: Query (compound): O=C(O)c1ccccc1 ; field requested: solubility (mole fraction)
Output: 0.15

====

setup conditions: in MIBK, 309.36 K
quantity name: solubility (mole fraction)
Numbers only.

Input: Quick one: solubility (mole fraction) of O=C(O)c1ccccc1 ?
Output: 0.217

Ref: BigSolDB 2.1
